Origin of values: patent US10189863B2

method: Cell viability: resazurin assay
Assay type: cell-based, human
cond: human, HEp2 cells
The entries below are paired with their reported CC50 at 5 days.
experimental_endpoint: CC50 at 5 days

compound | result
COCCOc1cccc(F)c1NC(=O)c1cc2c(s1)-c1ccccc1N(C(=O)c1ccc(NC(=O)c3cc(C)cnc3N3CC4(CCOCC4)C3)cc1)CC2 [Example 55] | > 12.9 µM
O=C(Nc1ccc(F)cc1Cl)c1cc2c(s1)-c1ccccc1N(C(=O)c1ccc(NC(=O)c3cccnc3N3CC4(CCOCC4)C3)cc1)CC2 [Example 27] | > 13.8 µM
Cc1cnc(N2CC3(CCOCC3)C2)c(C(=O)Nc2ccc(C(=O)N3CCc4cc(C(=O)Nc5c(F)cc(F)cc5F)sc4-c4ccccc43)c(F)c2)c1 [Example 59] | > 13.2 µM

----------
The entries below are paired with their reported CC50 at 5 days.
method: Cell viability: resazurin assay
Format: cell-based, human
cond: human, HEp2 cells
experimental_endpoint: CC50 at 5 days

molecule | experimental_endpoint | result
O=C(Nc1ccccc1F)c1cc2c(s1)-c1ccccc1N(C(=O)c1ccc(NC(=O)c3cc4ccccc4nc3N3CC4(CCOCC4)C3)cc1)CC2 [Example 84] | CC50 at 5 days | > 13.6 µM
Cc1cnc(N2CC3(CCOCC3)C2)c(C(=O)Nc2ccc(C(=O)N3CCc4cc(C(=O)Nc5c(F)cccc5Cl)sc4-c4ccccc43)cc2)c1 [Example 39] | CC50 at 5 days | > 13.6 µM
Cc1cnc(N2CC3(CCOCC3)C2)c(C(=O)Nc2ccc(C(=O)N3CCc4cc(C(=O)Nc5c(C)cccc5Cl)sc4-c4ccccc43)cc2)c1 [Example 56] | CC50 at 5 days | > 13.7 µM
Cc1ccc(C(=O)Nc2ccc(C(=O)N3CCc4cc(C(=O)Nc5c(F)cccc5Cl)sc4-c4ccccc43)cc2)c(N2CC3(CCOCC3)C2)n1 [Example 41] | CC50 at 5 days | > 13.6 µM
O=C(Nc1c(F)cccc1F)c1cc2c(s1)-c1ccccc1N(C(=O)c1ccc(NC(=O)c3cc4ccccc4nc3N3CC4(CCOCC4)C3)cc1)CC2 [Example 86] | CC50 at 5 days | > 13.2 µM
O=C(Nc1ccc(F)cc1F)c1cc2c(s1)-c1ccccc1N(C(=O)c1ccc(NC(=O)c3cccnc3N3CC4(CCOCC4)C3)cc1)CC2 [Example 20] | CC50 at 5 days | > 14.2 µM
Cc1cc(C(=O)Nc2ccc(C(=O)N3CCc4cc(C(=O)Nc5c(C)cccc5F)sc4-c4ccccc43)cc2)c(N2CC3(CCOCC3)C2)nc1C [Example 44] | CC50 at 5 days | > 13.7 µM
Cc1cnc(N2CC3(CCOCC3)C2)c(C(=O)Nc2ccc(C(=O)N3CCc4cc(C(=O)Nc5ccccc5F)sc4-c4ccccc43)cc2)c1 [Example 33] | CC50 at 5 days | > 14.2 µM
O=C(Nc1c(F)cccc1Cl)c1cc2c(s1)-c1ccccc1N(C(=O)c1ccc(NC(=O)c3cc4c(nc3N3CC5(CCOCC5)C3)CCCC4)cc1)CC2 [Example 81] | CC50 at 5 days | > 12.9 µM
COc1cnc(N2CC3(CCOCC3)C2)c(C(=O)Nc2ccc(C(=O)N3CCc4cc(C(=O)Nc5c(C)cccc5F)sc4-c4ccccc43)cc2)c1 [Example 71] | CC50 at 5 days | > 13.7 µM
Cc1cnc(N2CC3(CCOCC3)C2)c(C(=O)Nc2ccc(C(=O)N3CCc4cc(C(=O)Nc5c(C)cccc5CO)sc4-c4ccccc43)cc2)c1 [Example 58] | CC50 at 5 days | > 13.7 µM
Cc1ccc(C(=O)Nc2ccc(C(=O)N3CCc4cc(C(=O)Nc5c(F)cccc5F)sc4-c4ccccc43)cc2)c(N2CC3(CCOCC3)C2)n1 [Example 49] | CC50 at 5 days | > 13.9 µM
Cc1cnc(N2CCC3(CC2)COC3)c(C(=O)Nc2ccc(C(=O)N3CCc4cc(C(=O)Nc5c(F)cccc5C(F)(F)F)sc4-c4ccccc43)cc2)c1 [Example 94] | CC50 at 5 days | > 13 µM
Cc1cnc(N2CC3(CCOCC3)C2)c(C(=O)Nc2ccc(C(=O)N3CCc4cc(C(=O)Nc5c(F)cccc5OCCO)sc4-c4ccccc43)cc2)c1 [Example 54] | CC50 at 5 days | > 13.1 µM
Cc1cnc(N2CC3(CCOCC3)C2)c(C(=O)Nc2ccc(C(=O)N3CCc4cc(C(=O)Nc5c(F)cccc5I)sc4-c4ccccc43)cc2)c1 [Example 6] | CC50 at 5 days | > 12.1 µM
Cc1cc(C(=O)Nc2ccc(C(=O)N3CCc4cc(C(=O)Nc5c(F)cccc5Cl)sc4-c4ccccc43)cc2)c(N2CC3(CCOCC3)C2)nc1C [Example 46] | CC50 at 5 days | > 13.3 µM
O=C(Nc1c(F)cccc1F)c1cc2c(s1)-c1ccccc1N(C(=O)c1ccc(NC(=O)c3cc4c(nc3N3CC5(CCOCC5)C3)CCOC4)cc1)CC2 [Example 82] | CC50 at 5 days | > 13.1 µM
CCc1cnc(N2CC3(CCOCC3)C2)c(C(=O)Nc2ccc(C(=O)N3CCc4cc(C(=O)Nc5c(F)cccc5Cl)sc4-c4ccccc43)cc2)c1 [Example 61] | CC50 at 5 days | > 13.3 µM
O=C(Nc1c(F)cccc1Cl)c1cc2c(s1)-c1ccccc1N(C(=O)c1ccc(NC(=O)c3cc4ccccc4nc3N3CC4(CCOCC4)C3)cc1)CC2 [Example 87] | CC50 at 5 days | > 12.9 µM
O=C(Nc1ccccc1F)c1cc2c(s1)-c1ccccc1N(C(=O)c1ccc(NC(=O)c3cc(C4CC4)cnc3N3CC4(CCOCC4)C3)cc1)CC2 [Example 4] | CC50 at 5 days | > 13.7 µM
O=C(Nc1c(F)cccc1F)c1cc2c(s1)-c1ccccc1N(C(=O)c1ccc(NC(=O)c3cc4c(nc3N3CC5(CCOCC5)C3)CCC4)cc1)CC2 [Example 75] | CC50 at 5 days | > 13.4 µM
C#Cc1cnc(N2CC3(CCOCC3)C2)c(C(=O)Nc2ccc(C(=O)N3CCc4cc(C(=O)Nc5c(F)cccc5Cl)sc4-c4ccccc43)cc2)c1 [Example 66] | CC50 at 5 days | > 13.4 µM
Cc1cnc(N2CC3(CCOCC3)C2)c(C(=O)Nc2ccc(C(=O)N3CCc4cc(C(=O)Nc5c(F)cccc5C(F)(F)F)sc4-c4ccccc43)cc2)c1 [Example 63] | CC50 at 5 days | > 13 µM
C=Cc1cccc(F)c1NC(=O)c1cc2c(s1)-c1ccccc1N(C(=O)c1ccc(NC(=O)c3cc(C)cnc3N3CC4(CCOCC4)C3)cc1)CC2 [Example 36] | CC50 at 5 days | > 13.7 µM
